test_target: human glucagon receptor (human, UniProt P47871 26-477)
Sequence (P47871 26-477): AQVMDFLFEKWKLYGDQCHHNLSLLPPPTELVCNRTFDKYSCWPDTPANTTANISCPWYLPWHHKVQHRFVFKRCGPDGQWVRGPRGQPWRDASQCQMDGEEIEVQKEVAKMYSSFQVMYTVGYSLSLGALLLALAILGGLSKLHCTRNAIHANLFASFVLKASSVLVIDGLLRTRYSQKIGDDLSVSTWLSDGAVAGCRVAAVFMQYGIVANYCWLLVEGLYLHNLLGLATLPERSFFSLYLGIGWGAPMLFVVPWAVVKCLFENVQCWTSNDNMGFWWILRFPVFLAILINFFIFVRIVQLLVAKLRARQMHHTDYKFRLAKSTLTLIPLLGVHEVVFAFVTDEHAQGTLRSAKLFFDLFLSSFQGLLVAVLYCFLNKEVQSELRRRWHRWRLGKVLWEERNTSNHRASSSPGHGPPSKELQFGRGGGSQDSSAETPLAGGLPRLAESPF
assay_protocol: cell-based or functional assay
*1 amine or outer side, *2 acyl side, *3 side chain or, on linkers, in order; H or OH if unused. Where no end group is shown, it is not given here. Side-chain parts run from the residue outwards. [ ]: non-standard residue; d: D form. The star is where a group is joined. Decanoyl(10-(4-HOOC-PhO)) = O=C(O)c1ccc(OCCCCCCCCCC(=O)*)cc1; αMePhe(2-F) = C[C@](N)(Cc1ccccc1F)C(=O)O; γGlu = O=C(O)[C@H](CCC(=O)[*:2])N[*:1]; αMeY = C[C@](N)(Cc1ccc(O)cc1)C(=O)O; αMeL = CC(C)C[C@](C)(N)C(=O)O; Orn = NCCC[C@H](N)C(=O)O; AEEA = NCCOCCOCC(=O)O; Aib = CC(C)(N)C(=O)O
metric: cAMP EC50 (1.0% HSA)

Look up and state reported cAMP EC50 (1.0% HSA) for Y[Aib]EGT[αMePhe(2-F)]TSDV[Aib]I[αMeL]LD[Orn]K([AEEA-AEEA-γGlu-Decanoyl(10-(4-HOOC-PhO))])AQ[Aib]EFI[dE][αMeY]LIEGGPSSGAPPPSK([AEEA-AEEA-γGlu-Decanoyl(10-(4-HOOC-PhO))])-NH2 [Example 380]
> 9.95 µM

Look up and state reported cAMP EC50 (1.0% HSA) for YXEGTXTSDXXIXLDXQAQXXFIKXLIKGGPSSGAPPPS (Y-Aib-EGT-αMeF(2F)-TSD-4Pal-Aib-I-αMeL-LD-Orn-QAQ-Aib-Orn-FIK((2-[2-(2-Amino-ethoxy)-ethoxy]-acetyl)-Trx-(γ-Glu)-CO-(CH2)12-CO2H)-αMeY-LIK(((2-[2-(2-Amino-ethoxy)-ethoxy]-acetyl)-Trx-(γ-Glu)-CO-(CH2)12-CO2H)GGPSSGAPPPS-NH2)) [Example 472]
> 9.95 µM

Look up and state reported cAMP EC50 (1.0% HSA) for YXEGTXTSDYXIXLDXIAQXKFIXXLIEGGPSSGAPPPSK (Y-Aib-EGT-αMeF(2F)-TSDY-Aib-I-αMeL-LD-Orn-IAQ-Aib-K((2-[2-(2-Amino-ethoxy)-ethoxy]-acetyl)-(γ-Glu)-(10-(4-carboxyphenoxy)decanoyl))FI-(D-Glu)-αMeY-LIEGGPSSGAPPPSK((2-[2-(2-Amino-ethoxy)-ethoxy]-acetyl)-(γ-Glu)-(10-(4-carboxyphenoxy)decanoyl))-NH2) [Example 377]
> 9.95 µM

Reference source: patent US20230265151A1
